Test Summary: in vitro
Stated Conditions: African green monkey
Measure Name: CC50

Identify the reported CC50 for the following entry. COc1c(C)c2c(c(O)c1C/C=C(\C)CCC(=O)O)C(=O)OC2 > 50 µg/mL

* * *

Test Summary: in vitro
Stated Conditions: African green monkey
Measure Name: cytotoxicity

Identify the reported cytotoxicity for the following entry. CC1(C)C(OC2OC(C(=O)O)C(O)C(O)C2OC2OC(C(=O)O)C(O)C(O)C2O)CC[C@]2(C)[C@H]3C(=O)C=C4[C@@H]5C[C@@](C)(C(=O)O)CC[C@]5(C)CC[C@@]4(C)[C@]3(C)CC[C@@H]12 (stereo partly shown) 20 to 30%

These measurements were taken from patent US20070099855A1.
